- ASSAY_TARGET: Ephrin type-B receptor 1 (Rattus norvegicus, UniProt P09759)
- Sequence (P09759 whole entry): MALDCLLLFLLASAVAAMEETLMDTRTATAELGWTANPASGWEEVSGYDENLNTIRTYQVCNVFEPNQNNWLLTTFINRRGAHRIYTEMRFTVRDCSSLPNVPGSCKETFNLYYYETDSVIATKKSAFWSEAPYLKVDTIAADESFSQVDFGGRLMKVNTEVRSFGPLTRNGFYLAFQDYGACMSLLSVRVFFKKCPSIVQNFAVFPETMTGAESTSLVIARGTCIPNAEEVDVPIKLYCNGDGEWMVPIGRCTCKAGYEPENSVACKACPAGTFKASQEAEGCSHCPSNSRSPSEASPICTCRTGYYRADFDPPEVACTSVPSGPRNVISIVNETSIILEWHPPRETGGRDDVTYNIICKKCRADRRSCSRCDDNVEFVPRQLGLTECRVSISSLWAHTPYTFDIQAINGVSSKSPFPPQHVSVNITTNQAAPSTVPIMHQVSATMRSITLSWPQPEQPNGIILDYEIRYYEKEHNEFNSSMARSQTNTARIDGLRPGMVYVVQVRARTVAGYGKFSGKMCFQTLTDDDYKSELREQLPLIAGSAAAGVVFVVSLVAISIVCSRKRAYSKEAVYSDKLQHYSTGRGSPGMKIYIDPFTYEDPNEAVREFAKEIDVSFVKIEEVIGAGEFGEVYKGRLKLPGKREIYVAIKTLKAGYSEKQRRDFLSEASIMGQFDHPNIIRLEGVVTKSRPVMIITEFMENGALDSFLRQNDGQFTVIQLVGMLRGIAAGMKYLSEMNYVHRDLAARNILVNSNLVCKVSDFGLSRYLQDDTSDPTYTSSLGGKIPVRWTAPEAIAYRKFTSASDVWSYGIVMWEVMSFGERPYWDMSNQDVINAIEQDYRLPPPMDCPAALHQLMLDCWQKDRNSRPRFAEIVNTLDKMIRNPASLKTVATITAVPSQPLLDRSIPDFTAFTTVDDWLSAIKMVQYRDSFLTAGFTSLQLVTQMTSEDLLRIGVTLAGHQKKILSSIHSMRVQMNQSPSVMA
- TEST_PROTOCOL: Displacement of biotinylated Fc-tagged ephrin-B1 from N/C-terminal recombinant rat EphB1 (Met18 to Gln538 residues) preincubated for 1 hr followed by ephrin-B1-Fc addition and measured after 4 to 5 hrs by ELISA assay
pIC50: −log10 of the molar value.
Reported values of pIC50 for individual entries

## Task GET pIC50 | system: Ephrin type-B receptor 1 (Rattus norvegicus, UniProt P09759) | item: `C[C@H](CCC(=O)N[C@H](CC(=O)O)Cc1cn(S(=O)(=O)c2ccc(C(F)(F)F)cc2)c2ccccc12)[C@H]1CC[C@H]2[C@@H]3CC=C4C[C@@H](O)CC[C@]4(C)[C@H]3CC[C@]12C`
## Result < 4.52

## Task GET pIC50 | system: Ephrin type-B receptor 1 (Rattus norvegicus, UniProt P09759) | item: `C[C@H](CCC(=O)N[C@H](CC(=O)O)Cc1c[nH]c2ccccc12)[C@H]1CC[C@H]2[C@@H]3CC=C4C[C@@H](O)CC[C@]4(C)[C@H]3CC[C@]12C`
## Result 5.11

## Task GET pIC50 | system: Ephrin type-B receptor 1 (Rattus norvegicus, UniProt P09759) | item: `C[C@H](CCC(=O)N[C@H](CC(=O)O)Cc1cn(S(=O)(=O)c2ccccc2)c2ccccc12)[C@H]1CC[C@H]2[C@@H]3CC=C4C[C@@H](O)CC[C@]4(C)[C@H]3CC[C@]12C`
## Result < 4.52
